Hey, just so you know, these numbers are from ChEMBL document CHEMBL1143686.

In this section we review reported log10(GI50) values for a set of compounds.
- Test system: HT-29
- protocol: Growth inhibition of human HT29 cells after 48 hrs
- Type: functional
- test_settings: HT-29, 48 h
Hey, these are logged values: log10 of GI50, µM being the unit before logging.

Solved cases below.
sample_smiles: O=C(CCl)NC(=O)NC1c2ccccc2-c2ccccc21
log10(GI50): 0.93

sample_smiles: Cc1ccc(C)c(NC(=O)NC(=O)CCl)c1
log10(GI50): 0.83

sample_smiles: Cc1cccc(NC2=NCCO2)c1
log10(GI50): 1.52

Ask: Query (compound): "O=C(NCCCl)Nc1ccc(I)cc1" ; field requested: log10(GI50)
Result: 0.28

Ask: Query (compound): "Cc1ccc(NC(=O)NCCCl)cc1" ; field requested: log10(GI50)
Result: 1.20

Ask: Query (compound): "O=C(CCl)NC(=O)Nc1ccc2c(c1)Cc1ccccc1-2" ; field requested: log10(GI50)
Result: 1.11

* * *

- Test system: MCF7
- protocol: Growth inhibition of human MCF7 cells after 48 hrs
- Type: functional
- test_settings: MCF7, 48 h
Mark Fulfilled for GI50 under 8 µM, Not fulfilled if at or over.

Reference set (2 entries):
sample_smiles: Cc1ccc(NC2=NCCO2)cc1
classification: Not fulfilled
//
sample_smiles: Cc1cccc(NC2=NCCO2)c1
classification: Not fulfilled

Ask: Determine if "Cc1cccc(NC2=NCCO2)c1C" shows GI50 strictly lower than 8 µM.
Result: Not fulfilled

Ask: Determine if "Cc1ccccc1NC(=O)NC(=O)CCl" shows GI50 strictly lower than 8 µM.
Result: Not fulfilled

Ask: Determine if "Cc1cc(C)cc(NC2=NCCO2)c1" shows GI50 strictly lower than 8 µM.
Result: Not fulfilled

Ask: Determine if "Cc1cccc(NC(=O)NC(=O)CCl)c1" shows GI50 strictly lower than 8 µM.
Result: Fulfilled

Ask: Determine if "Cc1cc(C)cc(NC(=O)NC(=O)CCl)c1" shows GI50 strictly lower than 8 µM.
Result: Fulfilled

Ask: Determine if "Cc1ccc(NC(=O)NCCCl)cc1" shows GI50 strictly lower than 8 µM.
Result: Not fulfilled

* * *

- System: HT-29
- protocol: Growth inhibition of human HT29 cells after 48 hrs
- Assay type: functional
- test_settings: HT-29, 48 h
parameter: GI50 (µM)
Unit µM implied. Number only.

sample_smiles: Cc1ccc(NC2=NCCO2)cc1
target_system: HT-29
units_symbol: µM
value: 13

sample_smiles: Cc1ccc(NC(=O)NC(=O)CCl)c(C)c1
target_system: HT-29
units_symbol: µM
value: 11

sample_smiles: CC(C)(C)c1ccc(NC(=O)NCCCl)cc1
target_system: HT-29
units_symbol: µM
value: 2.3

With those in mind, consider the next compound.
Ask: Query (compound): "Cc1cccc(NC2=NCCO2)c1C" ; field requested: GI50
Result: 9

* * *

In this section we review reported log10 of GI50 values for a set of compounds.
- System: HT-29
- protocol: Growth inhibition of human HT29 cells after 48 hrs
- Assay type: functional
- test_settings: HT-29, 48 h
Hey, these are logged values: log10 of GI50, µM being the unit before logging.

Ask: Query (compound): "Cc1ccc(NC(=O)NC(=O)CCl)cc1C" ; field requested: log10 of GI50
Result: 0.84

* * *

- Tested on: MCF7
- protocol: Growth inhibition of human MCF7 cells after 48 hrs
- Type: functional
- test_settings: MCF7, 48 h
Mark yes (1) for GI50 under 5 µM, no (0) if at or over.

Ask: Determine if "O=C(NCCCl)Nc1ccc(I)cc1" shows GI50 strictly lower than 5 µM.
Result: no (0)

Ask: Determine if "c1ccc2c(c1)-c1ccccc1C2NC1=NCCO1" shows GI50 strictly lower than 5 µM.
Result: no (0)

Ask: Determine if "O=C(CCl)NC(=O)NC1c2ccccc2-c2ccccc21" shows GI50 strictly lower than 5 µM.
Result: yes (1)

Ask: Determine if "O=C(CCl)NC(=O)Nc1ccc2c(c1)CCC2" shows GI50 strictly lower than 5 µM.
Result: yes (1)

Ask: Determine if "c1cc2c(cc1NC1=NCCO1)CCC2" shows GI50 strictly lower than 5 µM.
Result: no (0)

Ask: Determine if "Cc1ccc(NC2=NCCO2)c(C)c1" shows GI50 strictly lower than 5 µM.
Result: no (0)

* * *

- System: HT-29
- protocol: Growth inhibition of human HT29 cells after 48 hrs
- Assay type: functional
- test_settings: HT-29, 48 h
parameter: GI50 (µM)
Unit µM implied. Number only.

Solved cases below.
sample_smiles: O=C(NCCCl)Nc1cccc2c1CCC2
GI50 [µM]: 95
//
sample_smiles: Cc1ccccc1NC(=O)NC(=O)CCl
GI50 [µM]: 9.8
//
sample_smiles: Cc1ccc(C)c(NC2=NCCO2)c1
GI50 [µM]: 44
//
sample_smiles: Cc1cccc(C)c1/N=C1/NCCO1
GI50 [µM]: 15
//
sample_smiles: Cc1ccc(NC2=NCCO2)cc1C
GI50 [µM]: 2.7
//
sample_smiles: O=C(CCl)NC(=O)Nc1cccc2c1CCC2
GI50 [µM]: 3.2

Ask: Query (compound): "Cc1cc(C)cc(NC(=O)NC(=O)CCl)c1" ; field requested: GI50
Result: 6.1

Ask: Query (compound): "O=C(CCl)NC(=O)Nc1ccc(I)cc1" ; field requested: GI50
Result: 6.9

Ask: Query (compound): "Cc1ccccc1NC1=NCCO1" ; field requested: GI50
Result: 13

Ask: Query (compound): "O=C(NCCCl)Nc1ccc2c(c1)CCC2" ; field requested: GI50
Result: 4.7

Ask: Query (compound): "Cc1cccc(NC(=O)NCCCl)c1" ; field requested: GI50
Result: 39

Ask: Query (compound): "c1cc2c(c(NC3=NCCO3)c1)CCC2" ; field requested: GI50
Result: 16

* * *

- Test system: MCF7
- protocol: Growth inhibition of human MCF7 cells after 48 hrs
- Type: functional
- test_settings: MCF7, 48 h
parameter: GI50 (µM)
Unit µM implied. Number only.

Solved cases below.
sample_smiles: O=C(CCl)NC(=O)Nc1ccc2c(c1)Cc1ccccc1-2
units_symbol: µM
GI50: 5
--
sample_smiles: CC(C)(C)c1ccc(NC2=NCCO2)cc1
units_symbol: µM
GI50: 3
--
sample_smiles: Cc1ccc(NC(=O)NC(=O)CCl)cc1C
units_symbol: µM
GI50: 5.5
--
sample_smiles: O=C(CCl)NC(=O)Nc1ccc(I)cc1
units_symbol: µM
GI50: 6.8

Ask: Lookup: GI50 / MCF7 / "Cc1ccc(NC(=O)NC(=O)CCl)c(C)c1"
Result: 8.6

Ask: Lookup: GI50 / MCF7 / "O=C(NCCCl)Nc1ccc2c(c1)Cc1ccccc1-2"
Result: 14.2

Ask: Lookup: GI50 / MCF7 / "Cc1ccccc1NC1=NCCO1"
Result: 21

Ask: Lookup: GI50 / MCF7 / "Ic1ccc(NC2=NCCO2)cc1"
Result: 2.9

Ask: Lookup: GI50 / MCF7 / "O=C(CCl)NC(=O)Nc1cccc2c1CCC2"
Result: 2.2

Ask: Lookup: GI50 / MCF7 / "Cc1cccc(C)c1NC(=O)NC(=O)CCl"
Result: 7.4

* * *

- System: HT-29
- protocol: Growth inhibition of human HT29 cells after 48 hrs
- Assay type: functional
- test_settings: HT-29, 48 h
parameter: GI50 (µM)
Unit µM implied. Number only.

Solved cases below.
sample_smiles: O=C(CCl)NC(=O)Nc1ccc2c(c1)CCC2
GI50 (µM): 7
--
sample_smiles: CC(C)(C)c1ccc(NC(=O)NC(=O)CCl)cc1
GI50 (µM): 3.3
--
sample_smiles: Cc1ccc(NC(=O)NCCCl)c(C)c1
GI50 (µM): 78
--
sample_smiles: Cc1ccc(NC(=O)NCCCl)cc1C
GI50 (µM): 4.2
--
sample_smiles: Cc1ccc(NC(=O)NC(=O)CCl)cc1
GI50 (µM): 10
--
sample_smiles: Cc1cc(C)cc(NC2=NCCO2)c1
GI50 (µM): 7
--
sample_smiles: c1cc2c(cc1NC1=NCCO1)CCC2
GI50 (µM): 4.9
--
sample_smiles: c1ccc2c(c1)-c1ccccc1C2NC1=NCCO1
GI50 (µM): 15

Ask: Query (compound): "Cc1ccc(NC2=NCCO2)c(C)c1" ; field requested: GI50
Result: 15

Ask: Query (compound): "COc1cc2c(c(OC)c1OC)-c1ccc(OC)c(=O)cc1[C@@H](NC(C)=O)CC2" ; field requested: GI50
Result: 0.004

* * *

In this section we review reported log10 GI50 values for a set of compounds.
- Test system: MCF7
- protocol: Growth inhibition of human MCF7 cells after 48 hrs
- Type: functional
- test_settings: MCF7, 48 h
Hey, these are logged values: log10 of GI50, µM being the unit before logging.

Solved cases below.
compound: CC(C)(C)c1ccc(NC(=O)NC(=O)CCl)cc1
log10 GI50: 0.68

compound: O=C(NCCCl)Nc1ccc2c(c1)CCC2
log10 GI50: 1.23

compound: Cc1cc(C)cc(NC(=O)NCCCl)c1
log10 GI50: 1.49

compound: O=C(NCCCl)NC1c2ccccc2-c2ccccc21
log10 GI50: 1.32

compound: Cc1ccc(C)c(NC(=O)NC(=O)CCl)c1
log10 GI50: 0.76

compound: CC[C@]1(O)C[C@@H]2CN(CCc3c([nH]c4ccccc34)[C@@](C(=O)OC)(c3cc4c(cc3OC)N(C)[C@H]3[C@@](O)(C(=O)OC)[C@H](OC(C)=O)[C@]5(CC)C=CCN6CC[C@]43[C@@H]65)C2)C1 [VINBLASTINE]
log10 GI50: -2.70

compound: Cc1ccc(NC(=O)NCCCl)cc1C
log10 GI50: 1.08

compound: Cc1cccc(NC(=O)NC(=O)CCl)c1C
log10 GI50: 0.81

Ask: Lookup: log10 GI50 / MCF7 / "Cc1ccc(NC(=O)NC(=O)CCl)cc1"
Result: 0.88

Ask: Lookup: log10 GI50 / MCF7 / "CC(C)(C)c1ccc(NC(=O)NCCCl)cc1"
Result: 0.79

Ask: Lookup: log10 GI50 / MCF7 / "Cc1cccc(C)c1/N=C1/NCCO1"
Result: 1.36

Ask: Lookup: log10 GI50 / MCF7 / COc1cc2c(c(OC)c1OC)-c1ccc(OC)c(=O)cc1[C@@H](NC(C)=O)CC2 [COLCHICINE]
Result: -2.05

Ask: Lookup: log10 GI50 / MCF7 / "Cc1ccc(C)c(NC2=NCCO2)c1"
Result: 1.86

Ask: Lookup: log10 GI50 / MCF7 / "Cc1ccc(NC2=NCCO2)cc1C"
Result: 0.76

Ask: Lookup: log10 GI50 / MCF7 / "c1cc2c(c(NC3=NCCO3)c1)CCC2"
Result: 1.41

Ask: Lookup: log10 GI50 / MCF7 / CC(=O)O[C@H]1C(=O)[C@@]2(C)[C@H]([C@H](OC(=O)c3ccccc3)[C@]3(O)C[C@H](OC(=O)[C@H](O)[C@@H](NC(=O)c4ccccc4)c4ccccc4)C(C)=C1C3(C)C)[C@]1(OC(C)=O)CO[C@@H]1C[C@@H]2O [PACLITAXEL]
Result: -1.27
